# assay_remarks: pKa value was determined
# Type: physicochemical
measured_parameter: pKa
The answer should be a number; do not append a unit.

-- ask Given COc1cccc2c3c(c(C)nc12)CCN3c1ccccc1C , state its recorded pKa.
-- reply 9.5

Consider the additional molecule presented here.
-- ask Given COc1cccc2c1nc(C)c1ccn(-c3ccccc3C)c12 , state its recorded pKa.
-- reply 7.4
